# Test name: amyloid nucleation score (Sup35N fusion, yeast selection) (log enrichment); library NNK2; higher = more nucleation; inactive = no reads after selection;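 note: zero at mode of non-aggregating sequences after 7 days selection at 30°C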
Values of amyloid nucleation score greater than or equal to 0.4 map to y; values below map to n.

Example results:
>>> df
              substance  classification
0           ELVYHLSNLKG               n
1  FTALSIGLIIVMLRLYRRCF               n
2  ITLTLTVCTGLCWKYGRRMW               y
3               CFLWHAT               y

Please tell me: is the substance `LEVLVLDVYSYVSLHVGTFV` at or over 0.4 in terms of amyloid nucleation score?
n

Next substance up: `CVSDCD`
y

Next substance up: `QIFLIKIGAFVLLLTVQ`
n

Next substance up: `FNTILVRLPA`
y

Next substance up: `FNGSGARGSGRMYAILYKMS`
y

Next substance up: `NFGLEELTGKIGGRTC`
y

Next substance up: `ESYKCVFRLIDWNIDYILTV`
y

Next substance up: `TGGGATLRRILRHLSVGSDR`
n

###

# Test name: amyloid nucleation score (Sup35N fusion, yeast selection) (log enrichment); library NNK3; higher = more nucleation; inactive = no reads after selection
Measured property: amyloid nucleation score

As a guide, the following entries are already answered.
>>> print(df.to_string())
              substance         measured_property       val
0       LFGTFQWVDWGLFIL  amyloid nucleation score  inactive
1  MPMGGRYSAKAIVLVQKKDW  amyloid nucleation score  inactive
2  KISGNFKILDWVGNFSDGNS  amyloid nucleation score  inactive
3  CFMHPADIPSMAVVVYLCAG  amyloid nucleation score  inactive
4                SLFRNS  amyloid nucleation score  inactive

Would you mind telling me what amyloid nucleation score value was observed for `HVVVFDYLLSVLCIVDRVEG` ?
inactive

Next substance up: `TVLSVGINDFPYRSAISCLR`
inactive

Next substance up: `FSVSDSFP`
inactive

Next substance up: `MRRVGIWYVRR`
inactive

Next substance up: `CWFRLYQRNARVVDNFVNHG`
inactive

###

# Test name: amyloid nucleation score (Sup35N fusion, yeast selection) (log enrichment); library NNK1; higher = more nucleation; inactive = no reads after selection
Values of amyloid nucleation score greater than or equal to 0.5 map to y; values below map to n.

Example results:
              substance  classification
0  SIFLKIPNREVLSSFRWTCF               n
1            TCMTRTLYIL               n
2  CGVLKTRIPLCFGVFEWNSL               n
3      VYGSIKSVEANTVWML               y
4  AFSSVEFRLDVNVFPEWVVL               y

Please tell me: is the substance `FLLGSYILWECNHGSHHMSG` at or over 0.5 in terms of amyloid nucleation score?
n

Next substance up: `QGLNNMHSGVVLKMLT`
y

Next substance up: `SYPTKLPWFGGGYNRGSMSS`
n

Next substance up: `VILVFRVDNCTERKAN`
n

###

# Test name: amyloid nucleation score (Sup35N fusion, yeast selection) (log enrichment); library NNK2; higher = more nucleation; inactive = no reads after selection
Measured property: amyloid nucleation score
Answer with a bare number; do not write a unit.

>>> df
   macromolecule_sequence   val
0    YIYYNYKGLSVVFLSNSNMW  2.88

Would you mind telling me what amyloid nucleation score value was observed for `MPLQFDPVWFILNTLLRPHA` ?
-0.228

Next sequence up: `FADTKDEGLYFGLMALLLEV`
0.016

Next sequence up: `SGHTFVFFYDSK`
5.95

###

# Test name: amyloid nucleation score (Sup35N fusion, yeast selection) (log enrichment); library NNK2; higher = more nucleation; inactive = no reads after selection
Measured property: amyloid nucleation score

As a guide, the following entries are already answered.
>>> print(df.to_string())
              substance       val
0             KWGRCSIGT  inactive
1                SNNHND  inactive
2  FIVCALIKEHILTYPGKVFV  inactive
3        YTGFWFIFTKGHTE  inactive

# context switch: different substance, same amyloid nucleation score
Would you mind telling me what amyloid nucleation score value was observed for `PAIYILLWAYSRSSACWLTA` ?
inactive

###

# Test name: amyloid nucleation score (Sup35N fusion, yeast selection) (log enrichment); library NNK1; higher = more nucleation; inactive = no reads after selection
Measured property: amyloid nucleation score

In [3]: df
Out[3]:
   macromolecule_sequence       val
0    RRMVTCLQLIVRNLRSCACC  inactive
1    PFLQQNKIFNGLYEMTNWVA  inactive
2    KLHNILLWNCLVFLCVMYVW  inactive

###

# Test name: amyloid nucleation score (Sup35N fusion, yeast selection) (log enrichment); library NNK2; higher = more nucleation; inactive = no reads after selection
Measured property: amyloid nucleation score
Answer with a bare number; do not write a unit.

>>> print(df.to_string())
              substance   val
0  TWSHTPNALWMDALRSTLQA  1.05

Would you mind telling me what amyloid nucleation score value was observed for `SFDVLL` ?
-0.568

Next substance up: `VYTVVYGYNWISCDHFSWDT`
7.47

Next substance up: `ASGCLASEDKMGVYLWVV`
0.171

Next substance up: `FKFTWRTFESNNLMVRVWLL`
-1.29

Next substance up: `SFQCSWIG`
3.04

Next substance up: `GGKTYNSTVVDVCDHAFCDY`
-0.924

Next substance up: `IYIWCARHEILWYRNGWGRG`
0.2

Next substance up: `LHIMVFQYLKWHTAI`
-0.07

Next substance up: `MPQSYFLGSRIKRFKKSRLV`
0.496

Next substance up: `LKPCLRFFNIIT`
3.44

Next substance up: `VRMWRGE`
0.083

Next substance up: `VIYRSNLASRGMNHAVFSKR`
-0.92

###

Reported amyloid nucleation score values for a set of substances
# Test name: amyloid nucleation score (Sup35N fusion, yeast selection) (log enrichment); library NNK1; higher = more nucleation; inactive = no reads after selection
Answer with a bare number; do not write a unit.

>>> print(df.to_string())
          substance   val
0  RMALCKSVCFTFWNIF  3.69

Would you mind telling me what amyloid nucleation score value was observed for `ASFLRNVFWVIREYTLCEYV` ?
0.647

Next substance up: `MISMFSLFLIRMIM`
-0.052

###

# Test name: amyloid nucleation score (Sup35N fusion, yeast selection) (log enrichment); library NNK1; higher = more nucleation; inactive = no reads after selection
Reported amyloid nucleation score values for a set of substances
Answer with a bare number; do not write a unit.

As a guide, the following entries are already answered.
              substance     val
0  VYFSSLVIFWYLFLYSFEYL   0.689
1  GMSPPSNSFFSFCFTGLVKF   0.319
2  YTVSNQLLSRLRGVQHNKLK   -1.11
3  EVEQVHLFSAVINSWCGDVF   0.575
4         SDKLTRFSTRVFR  -0.586
5    DMHQRMPVFHGHRATYCC   0.102

Would you mind telling me what amyloid nucleation score value was observed for `MDTVFSFYVIIPVQFSCVAL` ?
3

Next substance up: `CREVAKFGKLSNRQSRGCAI`
-0.951

Next substance up: `IKGFALVWTPFGLAFFYRG`
0.113

Next substance up: `DETDQNTFTTSIV`
1.23

Next substance up: `GNYVVVVGYN`
0.326

Next substance up: `VVKSSTPSSDPTTASRIWLL`
-0.26

Next substance up: `HEKDWLTSVCFISELSTFNN`
0.709

Next substance up: `FGRVRCLESEICSCGFFVDE`
3.03

Next substance up: `SCTPWAVLFMLKSALGSLRG`
0.708

Next substance up: `GLICNIDVRMRFVFMVRGSP`
2.45

Next substance up: `MFSYDFGMCGFYN`
0.971

Next substance up: `LNWSNKWSFTNMRRFCAMF`
0.01

###

# Test name: amyloid nucleation score (Sup35N fusion, yeast selection) (log enrichment); library NNK1; higher = more nucleation; inactive = no reads after selection
Reported amyloid nucleation score values for a set of substances
Answer with a bare number; do not write a unit.

As a guide, the following entries are already answered.
>>> print(df.to_string())
              substance         measured_property     val
0  DWPFQYDVKSRLVILLWFVR  amyloid nucleation score   0.086
1  ICVGGNGADCFKMTTGGQLC  amyloid nucleation score  -0.481

Would you mind telling me what amyloid nucleation score value was observed for `YRTNRKEHSYVLLYARRPSQ` ?
0.56

Next substance up: `GGYMGL`
-0.158

Next substance up: `GWVMLTCIRNAGVNLRPGSR`
1.58

Next substance up: `GKLDCVKVLNVHCP`
0.527

Next substance up: `RTRLFHDLLLCAAHIRLRIR`
0.133

Next substance up: `PLTLFYLLNTHAVEFSKVNC`
-0.674
